Recorded SPOT peptide array binding signal intensity, one value per entry.
- target_or_system: ScNbp2
- assay: SPOT peptide array binding signal intensity (averaged, normalized) (arbitrary units (background-subtracted, floor 0; scale differs between SH3 domains)); higher = stronger binding of the SH3 domain to the peptide
Give the figure only, with no unit attached.

Some binders with known SPOT peptide array binding signal intensity results, for comparison:
SRQAIPPPVPNRPGG = 304
DFTLPPPPPPPGLDE = 18

query: Fill in the blank: the reported SPOT peptide array binding signal intensity of "APERAVPILPPRNNV" is ____.
result: 6

query: Likewise for "RAPPPVPKKPSSRIA" ?
result: 5230

query: Do the same for "VPPVPLPFGIPPFPM" please
result: 23

query: Now give it for "IKKRNKIRLPSGSPE" too.
result: 256

query: Param item: "FTLPPPPPPPGLDEL"
result: 1
